Consider the following compounds and their measured IC50 readings.
Tested on: HT-29
experimentalProtocol: Cytotoxicity against human HT-29 cells after 48 hrs by alamar blue assay
Format: functional, cell-based
conditionInfo: HT-29, 48 h
Your answer is read as µM, so omit the unit and give the number.

| mol | studyTarget | dataValue |
| --- | --- | --- |
| COc1cccc2c1C(=O)c1c(O)c3c(c(O)c1C2=O)C[C@@](O)(C(=O)CO)C[C@@H]3O[C@H]1C[C@H](N)[C@H](O)[C@H](C)O1 | HT-29 | 6.04 |
| COc1cc(O)c2c(=O)cc(-c3ccc(O)cc3)oc2c1[C@H]1CC(=O)[C@H](O)[C@@H](C)O1 | HT-29 | 11.6 |
| COc1cc(O)c2c(=O)cc(-c3ccc(O)cc3)oc2c1[C@H]1C[C@H](O)[C@H](O)[C@@H](C)O1 | HT-29 | 26 |
| C[C@H]1O[C@@H](c2c(O)cc(O)c3c(=O)cc(-c4ccc(O)cc4)oc23)C[C@H](O)[C@H]1O | HT-29 | 10 |

// moving on: another record for IC50
Qu. State the recorded IC50 for this entry: C[C@H]1O[C@@H](c2c(O)cc(O)c3c(=O)cc(-c4ccc(O)cc4)oc23)C[C@H](O)[C@@H]1O
Ans. 25.3
